Value source: ChEMBL document CHEMBL3091351

Quick reference: pKi of the listed items.
target: Neuronal acetylcholine receptor subunit alpha-7 (Rattus norvegicus, UniProt Q05941); test: Displacement of [3H]methyllycaconitine from rat forebrain alpha7 nAChR
Sequence (Q05941 whole entry): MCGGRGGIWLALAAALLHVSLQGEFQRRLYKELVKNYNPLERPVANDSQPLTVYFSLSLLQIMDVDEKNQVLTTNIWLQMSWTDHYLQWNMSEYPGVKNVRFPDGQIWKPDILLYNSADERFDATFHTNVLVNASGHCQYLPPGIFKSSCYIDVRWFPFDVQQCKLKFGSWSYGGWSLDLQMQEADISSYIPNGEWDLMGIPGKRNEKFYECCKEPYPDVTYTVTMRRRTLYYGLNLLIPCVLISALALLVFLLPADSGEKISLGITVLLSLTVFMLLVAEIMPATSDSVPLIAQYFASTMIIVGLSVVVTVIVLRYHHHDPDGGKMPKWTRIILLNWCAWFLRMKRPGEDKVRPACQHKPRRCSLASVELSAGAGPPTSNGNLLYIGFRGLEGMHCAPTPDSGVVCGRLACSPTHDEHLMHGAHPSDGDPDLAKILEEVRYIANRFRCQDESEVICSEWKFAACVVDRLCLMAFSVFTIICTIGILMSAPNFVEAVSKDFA
Here pKi is given on a logarithmic scale as minus log10 of the concentration in mol/L.

entrysmiles=O=c1cccc2n1C[C@@H]1CNC[C@H]2C1 reportedmetric=pKi experimentalvalue=6.60

Here is the next item to consider.
Lookup: Give Neuronal acetylcholine receptor subunit alpha-7 (Rattus norvegicus, UniProt Q05941) pKi for `O=c1c(-c2cccnc2)ccc2n1C[C@@H]1CNC[C@H]2C1`
Found: 5.96

* * *

assay: Displacement of [3H]epibatidine from alpha3beta4 nAChR in calf adrenal membranes fraction after 90 mins by liquid scintillation counting analysis; type: cell membranes, Bos taurus
pKi: −log10 of the molar value.
reportedMetric: pKi

Past entries and their recorded results:
entrysmiles=O=[N+]([O-])c1ccc(S(=O)(=O)N2C[C@@H]3CNC[C@@H](C3)C2)cc1 reportedmetric=pKi experimentalvalue=5.24
entrysmiles=N#Cc1ccc(C(=O)N2C[C@@H]3CNC[C@@H](C3)C2)cc1 reportedmetric=pKi experimentalvalue="< 5.00"
entrysmiles=c1ccc(CN2C[C@@H]3CNC[C@@H](C3)C2)cc1 reportedmetric=pKi experimentalvalue=6.24
entrysmiles=Cc1ccc(C(=O)N2C[C@@H]3CNC[C@@H](C3)C2)cc1 reportedmetric=pKi experimentalvalue="< 5.30"
entrysmiles=CC(C)C(=O)N1C[C@@H]2CNC[C@@H](C2)C1 reportedmetric=pKi experimentalvalue=6.08
entrysmiles=CN(C)C(=O)N1C[C@@H]2CNC[C@@H](C2)C1 reportedmetric=pKi experimentalvalue="< 6.00"
entrysmiles=CCCC(=O)N1C[C@@H]2CNC[C@@H](C2)C1 reportedmetric=pKi experimentalvalue=6.58
entrysmiles=O=C(N1CCC(Cc2ccccc2)CC1)N1C[C@@H]2CNC[C@@H](C2)C1 reportedmetric=pKi experimentalvalue="< 5.00"

Lookup: Endpoint output: pKi of `O=C(c1cccc([N+](=O)[O-])c1)N1C[C@@H]2CNC[C@@H](C2)C1` . Value?
Found: < 5.00

Lookup: Endpoint output: pKi of `O=C(c1c[nH]c2ccccc12)N1C[C@@H]2CNC[C@@H](C2)C1` . Value?
Found: < 5.00

Lookup: Endpoint output: pKi of `CCC(=O)N1C[C@@H]2CNC[C@@H](C2)C1` . Value?
Found: 6.48

Lookup: Endpoint output: pKi of `O=C(c1ccnc2ccccc12)N1C[C@@H]2CNC[C@@H](C2)C1` . Value?
Found: < 5.30

Lookup: Endpoint output: pKi of `CC(=O)N1C[C@@H]2CNC[C@@H](C2)C1` . Value?
Found: 6.18

Lookup: Endpoint output: pKi of `N#Cc1ccc(S(=O)(=O)N2C[C@@H]3CNC[C@@H](C3)C2)cc1` . Value?
Found: < 5.00

Lookup: Endpoint output: pKi of `O=C(c1cc2ccccc2[nH]1)N1C[C@@H]2CNC[C@@H](C2)C1` . Value?
Found: < 5.00

Lookup: Endpoint output: pKi of `O=C(N1CCCC1)N1C[C@@H]2CNC[C@@H](C2)C1` . Value?
Found: < 5.00

* * *

molecular target: Neuronal acetylcholine receptor; alpha4/beta2 (Homo sapiens, UniProt P17787+P43681); assay: Displacement of [3H]nicotine from alpha4beta2 nAChR expressed in human SH-EP1 clonal cell membranes after 2 to 3 hrs by liquid scintillation counting analysis
Sequence (P17787 whole entry): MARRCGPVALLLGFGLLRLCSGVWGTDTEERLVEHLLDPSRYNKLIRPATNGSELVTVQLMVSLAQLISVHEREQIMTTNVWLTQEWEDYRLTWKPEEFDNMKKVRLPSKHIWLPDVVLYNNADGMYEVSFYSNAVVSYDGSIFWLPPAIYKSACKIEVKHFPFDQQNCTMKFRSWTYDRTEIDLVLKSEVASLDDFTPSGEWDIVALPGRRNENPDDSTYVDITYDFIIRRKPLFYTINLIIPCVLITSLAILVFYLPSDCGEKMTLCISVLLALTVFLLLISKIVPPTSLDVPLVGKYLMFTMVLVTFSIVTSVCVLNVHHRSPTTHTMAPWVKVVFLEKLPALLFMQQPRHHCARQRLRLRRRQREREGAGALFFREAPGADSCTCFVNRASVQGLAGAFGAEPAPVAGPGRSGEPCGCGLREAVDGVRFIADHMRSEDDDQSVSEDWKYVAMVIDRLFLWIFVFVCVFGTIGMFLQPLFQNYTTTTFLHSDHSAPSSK
Sequence (P43681 whole entry): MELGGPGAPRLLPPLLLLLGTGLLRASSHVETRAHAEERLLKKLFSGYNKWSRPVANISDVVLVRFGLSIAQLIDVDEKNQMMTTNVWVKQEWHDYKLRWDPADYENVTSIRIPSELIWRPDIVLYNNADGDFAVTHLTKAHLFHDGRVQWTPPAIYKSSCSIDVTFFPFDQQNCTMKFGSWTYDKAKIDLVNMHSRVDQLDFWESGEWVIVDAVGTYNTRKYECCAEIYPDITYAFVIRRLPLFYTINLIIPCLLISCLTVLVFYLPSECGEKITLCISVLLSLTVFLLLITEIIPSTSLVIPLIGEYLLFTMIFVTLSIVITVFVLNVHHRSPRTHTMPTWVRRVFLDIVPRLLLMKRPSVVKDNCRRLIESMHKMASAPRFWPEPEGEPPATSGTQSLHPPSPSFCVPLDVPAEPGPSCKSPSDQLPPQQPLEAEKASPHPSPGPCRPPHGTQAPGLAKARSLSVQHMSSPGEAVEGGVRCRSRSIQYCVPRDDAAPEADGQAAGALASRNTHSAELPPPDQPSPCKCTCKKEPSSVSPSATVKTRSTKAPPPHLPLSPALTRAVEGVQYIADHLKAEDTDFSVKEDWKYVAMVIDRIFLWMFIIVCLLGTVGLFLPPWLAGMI
Quick reference: Ki of the listed items.
API: value field is a number in nM; no unit string.

Past entries and their recorded results:
entrysmiles=CC(C)C(=O)N1C[C@@H]2CNC[C@@H](C2)C1 targetdesc="Neuronal acetylcholine receptor; alpha4/beta2 (Homo sapiens, UniProt P17787+P43681)" experimentalvalue=44.4
entrysmiles=CCCC(=O)N1C[C@@H]2CNC[C@@H](C2)C1 targetdesc="Neuronal acetylcholine receptor; alpha4/beta2 (Homo sapiens, UniProt P17787+P43681)" experimentalvalue=2.9
entrysmiles=O=C(C1CCCC1)N1C[C@@H]2CNC[C@@H](C2)C1 targetdesc="Neuronal acetylcholine receptor; alpha4/beta2 (Homo sapiens, UniProt P17787+P43681)" experimentalvalue=20.2
entrysmiles=O=C(c1ccco1)N1C[C@@H]2CNC[C@@H](C2)C1 targetdesc="Neuronal acetylcholine receptor; alpha4/beta2 (Homo sapiens, UniProt P17787+P43681)" experimentalvalue=9.9
entrysmiles=CCC(=O)N1C[C@@H]2CNC[C@@H](C2)C1 targetdesc="Neuronal acetylcholine receptor; alpha4/beta2 (Homo sapiens, UniProt P17787+P43681)" experimentalvalue=10.4

Lookup: Give Neuronal acetylcholine receptor; alpha4/beta2 (Homo sapiens, UniProt P17787+P43681) Ki for `CC(=O)N1C[C@@H]2CNC[C@@H](C2)C1`
Found: 20.2

* * *

target: Neuronal acetylcholine receptor; alpha4/beta2 (Rattus norvegicus, UniProt P09483+P12390); experiment: Displacement of [3H]epibatidine from alpha4beta2 nAChR in Sprague-Dawley rat forebrain P2 fraction after 90 mins by liquid scintillation counting analysis
Sequence (P09483 whole entry): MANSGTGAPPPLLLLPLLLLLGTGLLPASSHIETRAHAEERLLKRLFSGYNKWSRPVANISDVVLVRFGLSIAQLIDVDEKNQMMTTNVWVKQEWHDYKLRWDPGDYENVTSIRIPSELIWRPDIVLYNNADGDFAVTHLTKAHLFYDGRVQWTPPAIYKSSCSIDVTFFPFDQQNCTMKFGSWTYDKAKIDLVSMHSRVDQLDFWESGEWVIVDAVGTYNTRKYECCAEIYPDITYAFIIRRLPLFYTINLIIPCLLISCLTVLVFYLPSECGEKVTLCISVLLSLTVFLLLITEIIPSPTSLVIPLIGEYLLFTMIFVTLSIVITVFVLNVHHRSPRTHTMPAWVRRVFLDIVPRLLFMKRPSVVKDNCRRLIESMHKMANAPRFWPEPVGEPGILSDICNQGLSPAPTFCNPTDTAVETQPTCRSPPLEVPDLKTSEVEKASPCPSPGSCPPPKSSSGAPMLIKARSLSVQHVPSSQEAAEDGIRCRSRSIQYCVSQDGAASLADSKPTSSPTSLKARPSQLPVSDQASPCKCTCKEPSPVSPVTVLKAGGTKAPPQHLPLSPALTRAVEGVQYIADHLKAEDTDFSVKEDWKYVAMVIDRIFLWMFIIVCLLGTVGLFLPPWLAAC
Sequence (P12390 whole entry): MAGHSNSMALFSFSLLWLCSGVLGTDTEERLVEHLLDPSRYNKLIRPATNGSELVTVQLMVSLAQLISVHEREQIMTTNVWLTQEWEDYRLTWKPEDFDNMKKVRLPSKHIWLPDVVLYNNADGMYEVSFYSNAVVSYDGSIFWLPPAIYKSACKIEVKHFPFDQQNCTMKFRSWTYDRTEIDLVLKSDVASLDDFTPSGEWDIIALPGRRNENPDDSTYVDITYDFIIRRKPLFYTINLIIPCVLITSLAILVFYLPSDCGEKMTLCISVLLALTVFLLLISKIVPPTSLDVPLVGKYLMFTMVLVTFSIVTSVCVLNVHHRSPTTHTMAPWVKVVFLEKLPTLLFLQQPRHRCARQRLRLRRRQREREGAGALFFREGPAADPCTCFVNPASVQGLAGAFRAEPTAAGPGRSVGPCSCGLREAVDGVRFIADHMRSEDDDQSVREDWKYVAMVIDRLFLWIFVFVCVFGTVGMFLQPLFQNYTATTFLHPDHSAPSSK
reportedMetric: log10 of Ki (log10 of the value in nM)
Please note: log10 values; quantity Ki; unit nM.

entrysmiles=O=C(c1cnccn1)N1C[C@@H]2CNC[C@@H](C2)C1 experimentalvalue=1.86
entrysmiles=Cn1cccc1C(=O)N1C[C@@H]2CNC[C@@H](C2)C1 experimentalvalue=2.82
entrysmiles=O=C(c1ccc(Cl)nc1)N1C[C@@H]2CNC[C@@H](C2)C1 experimentalvalue=2.29
entrysmiles=O=C(c1ccc2[nH]ccc2c1)N1C[C@@H]2CNC[C@@H](C2)C1 experimentalvalue=3.26
entrysmiles=O=C(c1ccc2cn[nH]c2c1)N1C[C@@H]2CNC[C@@H](C2)C1 experimentalvalue=2.31

Here is the next item to consider.
Lookup: Endpoint output: log10 of Ki of `CC(=O)N1C[C@@H]2CNC[C@@H](C2)C1` . Value?
Found: 0.75

* * *

molecular target: Neuronal acetylcholine receptor; alpha4/beta2 (Rattus norvegicus, UniProt P09483+P12390); assay: Displacement of [3H]-epibatidine from rat forebrain alpha4beta2 nAChR
reportedMetric: Ki

Lookup: Endpoint output: Ki of `O=c1c(-c2cccnc2)ccc2n1C[C@@H]1CNC[C@H]2C1` . Value?
Found: 0.91 nM

* * *

biological target: Neuronal acetylcholine receptor; alpha3/beta4 (Homo sapiens) (UniProt P30926+P32297); assay: Agonist activity at human alpha3beta4 nAChR expressed in Xenopus laevis oocytes at 10 uM incubated for 8 secs followed by compound washout for 241 secs by Two-electrode voltage clamp assay; assay type: cell-based
Activity calls are given as the source filed them. The calls are words filed in the database; no cut-off is given here.
reportedMetric: Activity

Past entries and their recorded results:
entrysmiles=O=C(C1CCCC1)N1C[C@@H]2CNC[C@@H](C2)C1 reportedmetric=Activity experimentalvalue=inactive
entrysmiles=CCCC(=O)N1C[C@@H]2CNC[C@@H](C2)C1 reportedmetric=Activity experimentalvalue=Active
entrysmiles=CC(=O)N1C[C@@H]2CNC[C@@H](C2)C1 reportedmetric=Activity experimentalvalue=Active
entrysmiles=C1NCC2CNCC1C2 reportedmetric=Activity experimentalvalue=Active
entrysmiles=O=C(CC1CCCC1)N1C[C@@H]2CNC[C@@H](C2)C1 reportedmetric=Activity experimentalvalue=inactive

Here is the next item to consider.
Lookup: Endpoint output: Activity of `CCC(=O)N1C[C@@H]2CNC[C@@H](C2)C1` . Value?
Found: Active

* * *

assay: Displacement of [3H]epibatidine from (alpha1)2beta1gammadelta nAChR in Torpedo californica electroplax after 90 mins by liquid scintillation counting analysis; set-up: species or system Tetronarce californica
pKi: −log10 of the molar value.
reportedMetric: pKi

Past entries and their recorded results:
entrysmiles=c1ccc(CN2C[C@@H]3CNC[C@@H](C3)C2)cc1 reportedmetric=pKi experimentalvalue="< 5.00"
entrysmiles=N#Cc1ccc(C(=O)N2C[C@@H]3CNC[C@@H](C3)C2)cc1 reportedmetric=pKi experimentalvalue="< 5.30"
entrysmiles=O=C(c1cccc([N+](=O)[O-])c1)N1C[C@@H]2CNC[C@@H](C2)C1 reportedmetric=pKi experimentalvalue="< 5.00"

Lookup: Endpoint output: pKi of `O=C(c1ccnc2ccccc12)N1C[C@@H]2CNC[C@@H](C2)C1` . Value?
Found: < 5.00

Lookup: Endpoint output: pKi of `C1NCC2CNCC1C2` . Value?
Found: < 6.00

Lookup: Endpoint output: pKi of `O=C(c1ccccc1)N1C[C@@H]2CNC[C@@H](C2)C1` . Value?
Found: < 5.00

Lookup: Endpoint output: pKi of `O=C(c1ccc(F)cc1)N1C[C@@H]2CNC[C@@H](C2)C1` . Value?
Found: < 5.00

Lookup: Endpoint output: pKi of `O=C(N1CCCC1)N1C[C@@H]2CNC[C@@H](C2)C1` . Value?
Found: < 5.00

Lookup: Endpoint output: pKi of `O=C(N1CCC(Cc2ccccc2)CC1)N1C[C@@H]2CNC[C@@H](C2)C1` . Value?
Found: < 5.30

Lookup: Endpoint output: pKi of `CC(C)(C)OC(=O)N1C[C@@H]2CNC[C@@H](C2)C1` . Value?
Found: < 5.00

Lookup: Endpoint output: pKi of `O=C(c1cnccn1)N1C[C@@H]2CNC[C@@H](C2)C1` . Value?
Found: < 5.00
